Taken from ChEMBL document CHEMBL3526118.

# System: Liver microsome
# test: Covalent binding in human liver microsomes measured per mg of protein using radiolabelled compound at 10 uM after 1 hr incubation by liquid scintillation counting
Label true when PB is strictly below 10 pmol; otherwise label false.

Confirm or reject: PB of `CC[C@H](C)C(=O)O[C@H]1C[C@H](O)C=C2C=C[C@H](C)[C@H](CC[C@@H](O)C[C@@H](O)CC(=O)O)[C@H]21` lies strictly below 10 pmol
true

# strict comparison: is reported PB < 10 pmol? input = `CC(C)c1nc(CN(C)C(=O)N[C@H](C(=O)N[C@@H](Cc2ccccc2)C[C@H](O)[C@H](Cc2ccccc2)NC(=O)OCc2cncs2)C(C)C)cs1`
false

Strictly below 10 pmol in PB? `Cc1ccc(-c2cc(C(F)(F)F)nn2-c2ccc(S(N)(=O)=O)cc2)cc1`
false

PB under 10 pmol? Item: `CC[C@H]1OC(=O)[C@H](C)[C@@H](O[C@H]2C[C@@](C)(OC)[C@@H](O)[C@H](C)O2)[C@H](C)[C@@H](O[C@@H]2O[C@H](C)C[C@H](N(C)C)[C@H]2O)[C@](C)(O)C[C@@H](C)C(=O)[C@H](C)[C@@H](O)[C@]1(C)O`
false

Does `Cc1cc2c(s1)Nc1ccccc1N=C2N1CCN(C)CC1` have PB strictly under 10 pmol?
false

hey, is PB for Cc1cc(CC(=O)O)n(C)c1C(=O)c1ccc(Cl)cc1 [ZOMEPIRAC] lower than 10 pmol or not?
true

Item `COC(=O)[C@H](c1ccccc1Cl)N1CCc2sccc2C1` : PB beneath 10 pmol, strictly?
false

# TODO verify PB < 10 pmol strictly for this molecule: CCN(CC)CCNC(=O)c1ccc(N)cc1 [PROCAINAMIDE]
true

Determine if `CCc1oc2ccccc2c1C(=O)c1cc(Br)c(O)c(Br)c1` shows PB strictly lower than 10 pmol.
false

Confirm or reject: PB of `CC(C)c1c(C(=O)Nc2ccccc2)c(-c2ccccc2)c(-c2ccc(F)cc2)n1CC[C@@H](O)C[C@@H](O)CC(=O)O` lies strictly below 10 pmol
false

In plain terms, does CNCCC(Oc1ccc(C(F)(F)F)cc1)c1ccccc1 (stereo not drawn) come in under 10 pmol for PB?
false

Lab note: confirm whether the reported PB for this molecule is below 10 pmol, equality not counting. molecule: NC(=O)N1c2ccccc2C=Cc2ccccc21 [CARBAMAZEPINE]
true

---

# test: Intrinsic clearance for reactive metabolites formation assessed as summation of [3H]GSH adduct formation rate-based reactive metabolites formation and cytochrome P450 (unknown origin) inactivation rate-based reactive metabolites formation
# condition.parameters: human
quantity.kind: clearance (µL/min/mg)
Lab book: enter the figure in µL/min/mg, no units written.

The recorded clearance for entry Nc1c2c(nc3ccccc13)CCCC2 [TACRINE] equals 0.007

Query CCc1oc2ccccc2c1C(=O)c1cc(Br)c(O)c(Br)c1 [BENZBROMARONE] yields clearance of 0.032

// sample CCc1ccc(CCOc2ccc(CC3SC(=O)NC3=O)cc2)nc1 (configuration not stated) [PIOGLITAZONE] , its clearance was 0.036

Item: CC(C)NCC(O)COc1cccc2ccccc12 (configuration not stated) [PROPRANOLOL] | clearance: 0.031

For reference, reported clearance for O=C(O)Cc1ccccc1Nc1c(Cl)cccc1Cl [DICLOFENAC] stands at 0.01

Measured clearance, COc1cc(C(=O)NS(=O)(=O)c2ccccc2C)ccc1Cc1cn(C)c2ccc(NC(=O)OC3CCCC3)cc12 [ZAFIRLUKAST] : 0.207

Documented clearance of CC(C)c1nc(CN(C)C(=O)N[C@H](C(=O)N[C@@H](Cc2ccccc2)C[C@H](O)[C@H](Cc2ccccc2)NC(=O)OCc2cncs2)C(C)C)cs1 [RITONAVIR] : 3.55

get_value(item= Cc1cc2c(s1)Nc1ccccc1N=C2N1CCN(C)CC1 [OLANZAPINE] , readout=clearance) returns 0.119

Kindly note the recorded clearance for CCN(CC)Cc1cc(Nc2ccnc3cc(Cl)ccc23)ccc1O [AMODIAQUINE] , which is 0.021

The compound listed as CN(CCOc1ccc(CC2SC(=O)NC2=O)cc1)c1ccccn1 (configuration not stated) [ROSIGLITAZONE] has a reported clearance of 0.048

In plain terms, O=C1NC(=O)C(c2ccccc2)(c2ccccc2)N1 [PHENYTOIN] has a documented clearance of 0.012

Reported clearance for CC(C)C(=O)Nc1ccc([N+](=O)[O-])c(C(F)(F)F)c1 [FLUTAMIDE] was 0.02
